Source listed as patent US20120114665A1.

Consider the following binders; for each one, report its pIC50.
- assayed.target: T1, penta-his-tagged hRANKL (human)
- T1 construct: also called his-hRANKL; not shown: penta-his tag
- T1 chain: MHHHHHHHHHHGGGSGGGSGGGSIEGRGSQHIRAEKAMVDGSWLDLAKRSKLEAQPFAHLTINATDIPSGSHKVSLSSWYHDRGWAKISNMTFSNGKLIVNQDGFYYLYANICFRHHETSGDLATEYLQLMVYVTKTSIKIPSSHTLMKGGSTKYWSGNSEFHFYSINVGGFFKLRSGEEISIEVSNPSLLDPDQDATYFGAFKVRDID
- assay.procedure: competition ELISA: 150 pM his-hRANKL pre-mixed with antibody, free RANKL detected on hRANK-hFc plate
Scale: negative log10 of molar concentration, which is what pIC50 denotes.

[in] Suppose we examine the binder H4H007P (antibody, V domains shown, Purified antibody from clone 2E12) VH: QVQLVESGGGVVQPGRSLRLSCAASGFTFSGYGMHWVRQAPGMGLEWVAVISYDGINKYYADSVKGRFTISRDNSKNTLFLQMNSLRAEDTALYYCAKCLSGTYWGYGMDVWGQGTTVTVS VL: DIQMTQSPSTLSASVGDRVTITCRASQSISSWLAWYQLKPGKAPKLLIYKASSLESGVPSRFGGSGSGTEFTLTISSLQPDDFATYYCQHYNSYSWTFGQGTKVEIK ; what pIC50 value has been reported?
[out] 9.47

[in] Suppose we examine the binder H4H010P (antibody, V domains shown, Purified antibody from clone 2H12) VH: QVQLVESGGGVVQPGRSLRLSCAASGFTFSGYGMHWVRQAPGKGLDWVTVISYDGSNKHYADSVKGRFTISRDNSKNTLYLQMSSLGPEDTAVYYCAKSLSGTYWGYGMDVWGQGTTVTVS VL: DIQMTQSPSTLSASVGDRVTITCRASQNISSWLAWYQQKPGKAPKLLIYKASSLESGVPSRFSGSGSGTEFTLTVSSLQPDDFATYYCQQYNRYSWTFGQGTKVEIK ; what pIC50 value has been reported?
[out] 10.35
